Biological target: T1, EsCas13d, nuclease-dead (Eubacterium siraeum, UniProt B0MS50, R295A;H300A;R849A;H854A)
T1 sequence: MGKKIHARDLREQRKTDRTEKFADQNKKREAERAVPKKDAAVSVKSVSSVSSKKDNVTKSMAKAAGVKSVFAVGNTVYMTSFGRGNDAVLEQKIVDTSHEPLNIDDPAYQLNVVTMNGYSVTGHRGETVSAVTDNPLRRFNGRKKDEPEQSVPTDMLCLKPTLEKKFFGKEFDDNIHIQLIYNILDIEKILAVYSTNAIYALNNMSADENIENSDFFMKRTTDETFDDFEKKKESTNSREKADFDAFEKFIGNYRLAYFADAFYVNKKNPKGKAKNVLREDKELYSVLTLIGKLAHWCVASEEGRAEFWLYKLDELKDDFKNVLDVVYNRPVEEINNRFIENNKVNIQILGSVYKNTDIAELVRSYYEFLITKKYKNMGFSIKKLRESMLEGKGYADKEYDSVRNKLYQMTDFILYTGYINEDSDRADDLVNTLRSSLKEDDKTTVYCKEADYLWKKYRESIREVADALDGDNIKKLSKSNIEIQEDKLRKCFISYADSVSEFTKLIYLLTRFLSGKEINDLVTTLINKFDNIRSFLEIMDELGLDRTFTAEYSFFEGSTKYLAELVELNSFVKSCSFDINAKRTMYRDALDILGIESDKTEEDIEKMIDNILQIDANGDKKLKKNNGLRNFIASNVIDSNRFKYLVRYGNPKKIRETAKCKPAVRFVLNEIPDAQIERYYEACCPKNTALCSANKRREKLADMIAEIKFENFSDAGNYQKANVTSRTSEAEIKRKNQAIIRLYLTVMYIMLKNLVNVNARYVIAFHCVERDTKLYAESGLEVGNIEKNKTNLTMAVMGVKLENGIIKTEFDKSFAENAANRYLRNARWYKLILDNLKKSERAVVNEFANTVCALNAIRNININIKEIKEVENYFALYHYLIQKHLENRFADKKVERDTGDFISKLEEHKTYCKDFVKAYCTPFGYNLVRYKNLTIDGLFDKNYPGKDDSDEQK
Experiment: crRNA (strand 1, pre-loaded); Mg2+; 40 mM Tris-HCl pH 7.5, 150 mM NaCl, 6 mM MgCl2, 1 mM DTT, 0.1% Tween-20, 0.2 mg/ml BSA; 25 C; 10 min per concentration, then washed
Details: tags: His6-TwinStrep-SUMO cleaved; N-terminal SNAP kept (SNAP-Surface 488); label: 3' end held by stalled T7 RNA polymerase
For each entry below, report its pKd value.
Numbers only, as −log10 of the molar value.

INSERT INTO measurements (binder, endpoint, val) VALUES
  ('target 1 A9U,U10A (mixed) RNA 1: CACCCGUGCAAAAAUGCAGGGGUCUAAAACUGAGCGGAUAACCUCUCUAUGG RNA 2: GGGAAUGGAUCCACAUCUACGAAUUCGUACCAUAGAGAGGUAUUCCGCUCACCGAGAUCGGAAGAGCACACGU', 'pKd', 7.69);

Moving on to the next binder.
Field pKd (entry target 1 MT 5'PFS ACA 3'PFS UUA (mixed) RNA 1: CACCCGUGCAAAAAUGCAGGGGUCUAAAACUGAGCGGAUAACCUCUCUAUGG RNA 2: GGGAAUGGAUCCACAUCUACGAAUUCACACCAUAGAGAGGUUAUCCGCUCAUUAAGAUCGGAAGAGCACACGU ) reads 8.05
